# ASSAY_DETAILS: gradient 5% acetonitrile 3 min, to 50% in 2 min, to 85% in 15 min, held 3 min, 100 µL/min
# CONDITION_SET: column: Zorbax Extend-C18 2.1 x 50 mm; eluents: water / acetonitrile, 0.1% formic acid
Reported RP-LC retention time is given for each of the following compounds.
READOUT_TYPE: RP-LC retention time (s)

{"COMPOUND": "Cc1ccc(N2CCn3c2nc2c3c(=O)n(CC(=O)O)c(=O)n2C)cc1C", "READOUT_TYPE": "RP-LC retention time", "RECORDED_RESULT": 771}
{"COMPOUND": "Cc1cccc(NC(=O)CN2C(=O)CCCc3cc(S(=O)(=O)N4CCC(C)CC4)ccc32)c1", "READOUT_TYPE": "RP-LC retention time", "RECORDED_RESULT": 1010}
{"COMPOUND": "CCCN1CCN(CCCNC(=O)C2CCCN(c3nc4cccnc4s3)C2)CC1 (centres undefined)", "READOUT_TYPE": "RP-LC retention time", "RECORDED_RESULT": 573}
{"COMPOUND": "Cc1cccc(Cn2nc3ccc(S(=O)(=O)N4CCCC4)cn3c2=O)c1", "READOUT_TYPE": "RP-LC retention time", "RECORDED_RESULT": 881}
{"COMPOUND": "Cc1ccc(S(=O)(=O)N2CC(=O)N(c3cccc(F)c3)C(C)(C(=O)NCCC(C)C)C2)cc1 (centres undefined)", "READOUT_TYPE": "RP-LC retention time", "RECORDED_RESULT": 1020}
{"COMPOUND": "CCOC(=O)CNC(=O)N1CCc2c(c(C(=O)N3CCCC3)nn2C)C1", "READOUT_TYPE": "RP-LC retention time", "RECORDED_RESULT": 637}
{"COMPOUND": "O=S(=O)(c1ccc2nncn2c1)N(Cc1ccc(F)cc1)c1cccc(F)c1", "READOUT_TYPE": "RP-LC retention time", "RECORDED_RESULT": 861}
{"COMPOUND": "COc1ccc(-n2c(Cc3cccn3C)nnc2SCC(=O)NCC2CCCO2)cc1 (centres undefined)", "READOUT_TYPE": "RP-LC retention time", "RECORDED_RESULT": 655}
{"COMPOUND": "Cc1ccc2ncn(C3CCN(S(=O)(=O)c4cc(F)cc(F)c4)CC3)c(=O)c2c1", "READOUT_TYPE": "RP-LC retention time", "RECORDED_RESULT": 932}

---

# ASSAY_DETAILS: gradient 5% acetonitrile 3 min, to 50% in 2 min, to 85% in 15 min, held 3 min, 100 µL/min
# CONDITION_SET: column: Zorbax Extend-C18 2.1 x 50 mm; eluents: water / acetonitrile, 0.1% formic acid
Reported RP-LC retention time is given for each of the following molecules.

{"MOLECULE": "COc1ccc(C(O)CN2CCN(c3ccc(OC)cc3)CC2)cc1 (stereo not given)", "RP-LC retention time (s)": 647}
{"MOLECULE": "CCNc1nc(C)cc(N2CCN(S(=O)(=O)c3cc(C(C)C)ccc3C)CC2)n1", "RP-LC retention time (s)": 838}
{"MOLECULE": "Cc1ccn2cc(C(=O)NCc3cccc(F)c3)nc2c1", "RP-LC retention time (s)": 645}
{"MOLECULE": "CCOc1ccc(S(=O)(=O)N2CCC(C(=O)NCc3ccncc3)CC2)cc1C", "RP-LC retention time (s)": 662}
{"MOLECULE": "O=C(CCC(=O)N1CCNc2ccccc2C1)N1CCOCC1", "RP-LC retention time (s)": 585}
{"MOLECULE": "CC(C)N1C(=O)c2cccnc2Sc2cc(NC(=O)Cc3ccsc3)ccc21", "RP-LC retention time (s)": 823}
{"MOLECULE": "O=C(NCCCN1CCc2ccccc2C1)C1CCCN(c2nnc(-n3cccc3)s2)C1 (stereo not given)", "RP-LC retention time (s)": 593}
{"MOLECULE": "CN(C)c1cccc(C(=O)Nc2cc(-c3ccsc3)no2)c1", "RP-LC retention time (s)": 927}
{"MOLECULE": "CC(O)c1nc2ccccc2n1CC(=O)N(c1ccccc1)C(C)C (stereo not given)", "RP-LC retention time (s)": 647}
{"MOLECULE": "O=C(Cn1c(Cc2ccc(Cl)cc2)nc2ccccc21)N1CCCCCC1", "RP-LC retention time (s)": 739}

---

# ASSAY_DETAILS: gradient 5% acetonitrile 3 min, to 50% in 2 min, to 85% in 15 min, held 3 min, 100 µL/min
# CONDITION_SET: column: Zorbax Extend-C18 2.1 x 50 mm; eluents: water / acetonitrile, 0.1% formic acid
Reported RP-LC retention time is given for each of the following compounds.
READOUT_TYPE: RP-LC retention time (s)

{"SMILES_STRING": "CCc1nnc(NC(=O)C2CCN(C(=O)c3ccccc3F)CC2)s1", "RECORDED_RESULT": 675}
{"SMILES_STRING": "Cc1cc(C(=O)NCCCN2CCOCC2)c2cc(Br)ccc2n1", "RECORDED_RESULT": 583}
{"SMILES_STRING": "Cc1cccc(NC(=O)N2[C@H]3CC[C@@H]2c2cnc(C)nc2C3)c1", "RECORDED_RESULT": 663}
{"SMILES_STRING": "COc1ccc(C2CC(=O)N(c3cccc(F)c3)C(=O)C2)cc1", "RECORDED_RESULT": 896}
{"SMILES_STRING": "CCN(CC)C(=O)c1cnc2snc(C)c2c1N1CCC(C(=O)Nc2ccc(C(C)C)cc2)CC1", "RECORDED_RESULT": 1040}
{"SMILES_STRING": "COc1cc(=O)n2c(c1C(=O)Nc1cccc(Br)c1)CCCC2", "RECORDED_RESULT": 760}
{"SMILES_STRING": "Cc1cc(=O)n(CC(=O)N2CCN(c3ccc(-c4ccccn4)nn3)CC2)cn1", "RECORDED_RESULT": 531}
{"SMILES_STRING": "O=C(NCCc1ccccc1)N1CCc2nc(-c3ccccc3)ncc2C1", "RECORDED_RESULT": 860}
{"SMILES_STRING": "O=C(Nc1nc(-c2cccc3ccccc23)cs1)c1ccncc1", "RECORDED_RESULT": 904}
{"SMILES_STRING": "Cc1cc(N(C)C)nc(N2CCN(S(=O)(=O)c3cc(C)c(C)cc3C)CC2)n1", "RECORDED_RESULT": 793}

---

# ASSAY_DETAILS: gradient 5% acetonitrile 3 min, to 50% in 2 min, to 85% in 15 min, held 3 min, 100 µL/min
# CONDITION_SET: column: Zorbax Extend-C18 2.1 x 50 mm; eluents: water / acetonitrile, 0.1% formic acid
Reported RP-LC retention time is given for each of the following compounds.

{"COMPOUND": "CCc1ccc2[nH]c3c(c(=O)c2c1)CN(CC(=O)Nc1cc(OC)cc(OC)c1)CC3", "RP-LC retention time, s": 642}
{"COMPOUND": "COc1ccc(Cl)cc1NC(=O)C1CCN(C(=O)c2cccn2-c2cccnc2)CC1", "RP-LC retention time, s": 784}
{"COMPOUND": "CCCCNc1cc(C)nc2nc(-c3ccc(C(C)(C)C)cc3)nn12", "RP-LC retention time, s": 1100}
{"COMPOUND": "COc1cc(NC(=O)N2CCN(c3cc(-c4ccccc4)ncn3)CC2)cc(OC)c1", "RP-LC retention time, s": 649}
{"COMPOUND": "CCN(CC)CCn1c(=O)c(Cc2ccc(OC)cc2)nc2ccccc21", "RP-LC retention time, s": 720}
{"COMPOUND": "CC1CCCC(NC(=O)Cn2cnc3c(nc4n3CCCCC4)c2=O)C1C (stereo not given)", "RP-LC retention time, s": 711}
{"COMPOUND": "CCCn1cc2c3c(cccc31)CN(C(=O)Nc1cccc(C)c1)CC2", "RP-LC retention time, s": 1070}
{"COMPOUND": "COc1cccc(CNC(=O)Nc2cccc(-c3ccc(N4CCCCC4)nn3)c2)c1", "RP-LC retention time, s": 702}
{"COMPOUND": "CCn1c(C(=O)N2CCN(c3ccc(F)cc3)CC2)cc2c(-c3cccs3)nn(-c3ccccc3)c21", "RP-LC retention time, s": 1220}
{"COMPOUND": "Cc1noc(-c2ccnc(-n3cnc(C(=O)NC4CCCCCC4)c3)c2)n1", "RP-LC retention time, s": 915}
{"COMPOUND": "COc1ccc(CC(=O)N2CCCC2COc2ccc(C(=O)N3CCCC3)cc2)cc1 (stereo not given)", "RP-LC retention time, s": 824}
{"COMPOUND": "N#Cc1ccc(C(=O)OCc2nc3ccccc3s2)cc1", "RP-LC retention time, s": 936}
{"COMPOUND": "CN1CCc2c(c(CNC(=O)c3cc(CN4CCOCC4)on3)nn2C)C1", "RP-LC retention time, s": 770}
{"COMPOUND": "CCOCCn1c(=O)c2c(nc3n2CC(C)CN3c2ccc(OC)cc2)n(C)c1=O (stereo not given)", "RP-LC retention time, s": 853}
{"COMPOUND": "Cc1noc(C2CN(C(=O)Nc3cccc(C)c3C)CC23CCOCC3)n1 (stereo not given)", "RP-LC retention time, s": 715}
{"COMPOUND": "CS(=O)(=O)c1ccc(NC(=O)Cn2cnc3c(sc4nc(-c5ccccc5)ccc43)c2=O)cc1", "RP-LC retention time, s": 862}
{"COMPOUND": "COc1cccc(NC(=O)Cn2nc3n(c2=O)CCCC3)c1", "RP-LC retention time, s": 634}
{"COMPOUND": "CSc1cccc2sc(NCc3cccnc3)nc12", "RP-LC retention time, s": 590}
{"COMPOUND": "Cc1cccc(CNC(=O)CCC2CCN(S(=O)(=O)c3ccccc3C)CC2)c1", "RP-LC retention time, s": 982}
{"COMPOUND": "Cc1nc(-c2cn(C(C)C)c3ncccc23)sc1C(=O)N1CCN(C)CC1", "RP-LC retention time, s": 611}

FYI, the data here is from the METLIN SMRT retention time set (Domingo-Almenara et al. 2019).
